These measurements were taken from patent US10988459B2.

- study.target: human RIP1 kinase domain (2-375) (Homo sapiens (Human))
- experimental.details: biochemical
- Type: biochemical
- assay.conditions: tight-binding apparent inhibition constant; human RIP1 kinase domain (2-375) 50 nM, 50 uM ATP, 2 hours; read-out: Ki
recorded.endpoint: Ki (nM)

compound	Ki (nM)
CC(C)[C@H]1CCCc2nc(C(=O)N[C@H]3COc4cc(F)cc(F)c4NC3=O)nn21 (single isomer, unassigned) [Example 447]	207

[A] CN1C(=O)[C@@H](NC(=O)c2ncn(CC3CCCOC3)n2)CCn2nc(C3CC3)cc21 (stereo partly shown) [Example 478]
[B] CN1C(=O)[C@@H](NC(=O)c2ncn(Cc3ccccc3)n2)CCn2nc(C3(F)CC3)cc21 [Example 570]
[C] Cc1cc2n(n1)CC[C@H](NC(=O)c1nnc(Cc3ccc(F)cc3)[nH]1)C(=O)N2C [Example 484]
Exam item: Rank items: key Ki, increasing. Give me the labels in the order the question wants.
Marked response: B, C, A
(B: 24 nM, C: 82 nM, A: 290 nM)

* * *

- study.target: human RIP1 kinase domain (2-375) (Homo sapiens (Human), UniProt Q13546)
- Sequence (Q13546 2-375): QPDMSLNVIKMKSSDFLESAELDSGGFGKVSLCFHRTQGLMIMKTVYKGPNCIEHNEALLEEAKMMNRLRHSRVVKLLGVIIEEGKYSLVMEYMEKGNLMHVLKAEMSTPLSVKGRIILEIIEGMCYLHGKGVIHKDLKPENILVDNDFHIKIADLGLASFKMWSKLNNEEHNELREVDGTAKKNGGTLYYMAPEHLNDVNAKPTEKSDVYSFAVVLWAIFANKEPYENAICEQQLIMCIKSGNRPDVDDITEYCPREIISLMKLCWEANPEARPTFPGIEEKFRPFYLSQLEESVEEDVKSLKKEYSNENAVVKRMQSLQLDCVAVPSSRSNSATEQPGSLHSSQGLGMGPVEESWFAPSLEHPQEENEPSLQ
- experimental.details: biochemical
- Type: biochemical
- assay.conditions: human RIP1 kinase domain (2-375), 50 uM ATP, 2 hours incubation, Transcreener ADP assay; read-out: RIP1 Ki
recorded.endpoint: Ki (nM)

See these solved cases before continuing.
compound	study.target	Ki (nM)
CN1C(=O)C(NC(=O)c2nnc(Cc3cccc(F)c3F)[nH]2)CCCn2nccc21 (stereo not shown)	human RIP1 kinase domain (2-375) (Homo sapiens (Human), UniProt Q13546)	215
Cc1cc2n(n1)CC[C@H](NC(=O)c1ncn(Cc3cccc(F)c3F)n1)C(=O)N2C	human RIP1 kinase domain (2-375) (Homo sapiens (Human), UniProt Q13546)	29.7
CN1C(=O)[C@@H](NC(=O)c2n[nH]c3c2CC2(CC3)CC2(F)F)COc2ccccc21 (stereo partly shown)	human RIP1 kinase domain (2-375) (Homo sapiens (Human), UniProt Q13546)	260
CN1C(=O)C(NC(=O)c2nnc(Cc3ccccc3)[nH]2)CCCn2nccc21 (stereo not shown)	human RIP1 kinase domain (2-375) (Homo sapiens (Human), UniProt Q13546)	381
Cc1cc2n(n1)CC[C@H](NC(=O)c1ncn(Cc3ccc(F)cc3)n1)C(=O)N2C [Example 164]	human RIP1 kinase domain (2-375) (Homo sapiens (Human), UniProt Q13546)	24.5

[A] Cc1ccc2snc(C(=O)N[C@H]3COc4ccccc4N(C)C3=O)c2c1
[B] CN1C(=O)[C@@H](NC(=O)c2nnc(Cc3cccc(F)c3F)[nH]2)CCn2nccc21
[C] CN1C(=O)[C@@H](NC(=O)c2n[nH]c3c2CC(c2ccc(F)cc2)OC3)COc2ccccc21 (stereo partly shown)
Exam item: Rank items: key Ki, increasing. Give me the labels in the order the question wants.
Marked response: A, B, C
(A: 18.6 nM, B: 34.6 nM, C: 98.3 nM)

[P] Cc1cc2n(n1)CC[C@H](NC(=O)c1ncn(Cc3ccc(F)cc3F)n1)C(=O)N2C
[Q] CN1C(=O)[C@@H](NC(=O)c2nnc3cnc(C(F)(F)F)cn23)COc2ccccc21
Exam item: Return label of the item with the larger Ki. Candidates: P , Q . Please identify the chosen entry by its label.
Marked response: Q
(Q: 1700 nM, P: 37.7 nM)

[P] CN1C(=O)[C@@H](NC(=O)c2n[nH]c3ccc(C#N)cc23)COc2ccccc21
[Q] CN1C(=O)[C@@H](NC(=O)c2ncn(Cc3ccccc3)n2)CCn2ccnc21
Exam item: Return label of the item with the larger Ki. Candidates: P , Q . Please identify the chosen entry by its label.
Marked response: P
(P: 167 nM, Q: 26.6 nM)

[A] CN1C(=O)C(NC(=O)c2nnc(Cc3ccccc3)[nH]2)CCn2nc3ccccc3c21 (stereo not shown)
[B] CN1C(=O)[C@@H](NC(=O)c2ncn(Cc3ccccc3)n2)CCn2nc([C@@H]3CC3(F)F)cc21
Exam item: Returns the identifier with the smallest measured Ki among A and B . Please identify the chosen entry by its label.
Marked response: B
(B: 46.2 nM, A: 133 nM)

[A] Cc1cc2n(n1)CC[C@H](NC(=O)c1ncn([C@H](C)c3ccccc3)n1)C(=O)N2C
[B] Cc1cc(F)c2c(c1)OC[C@H](NC(=O)c1n[nH]c3c1C[C@H](C(F)(F)F)CC3)C(=O)N2
Exam item: Return label of the item with the larger Ki. Candidates: A , B . Please identify the chosen entry by its label.
Marked response: A
(A: 986 nM, B: 55.4 nM)
